Assay target: Sodium/glucose cotransporter 2 (Rattus norvegicus)
Sequence (P53792 whole entry): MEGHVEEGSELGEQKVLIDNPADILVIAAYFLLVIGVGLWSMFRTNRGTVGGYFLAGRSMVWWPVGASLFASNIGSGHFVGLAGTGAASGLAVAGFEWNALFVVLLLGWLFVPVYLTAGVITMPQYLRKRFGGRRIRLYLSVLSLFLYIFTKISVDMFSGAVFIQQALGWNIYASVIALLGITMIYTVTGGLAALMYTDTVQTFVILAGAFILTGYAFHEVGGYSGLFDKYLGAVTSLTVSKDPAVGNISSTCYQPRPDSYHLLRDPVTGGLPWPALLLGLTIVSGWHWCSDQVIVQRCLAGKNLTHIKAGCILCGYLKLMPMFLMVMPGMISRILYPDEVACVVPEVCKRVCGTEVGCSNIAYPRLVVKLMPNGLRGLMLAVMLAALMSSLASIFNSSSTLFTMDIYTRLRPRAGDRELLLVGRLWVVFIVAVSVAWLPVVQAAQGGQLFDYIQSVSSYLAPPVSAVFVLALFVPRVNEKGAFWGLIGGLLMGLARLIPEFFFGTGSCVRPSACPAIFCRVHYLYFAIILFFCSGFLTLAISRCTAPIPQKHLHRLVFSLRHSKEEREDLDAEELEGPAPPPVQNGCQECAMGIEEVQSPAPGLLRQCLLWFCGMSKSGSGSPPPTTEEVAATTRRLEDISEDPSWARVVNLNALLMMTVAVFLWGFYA
Assay text: Binding affinity to SGLT2 in isolated rat renal cortex brush border membranes using maleimide-PEG800-NHS to couple compound to AFM cantilever tip
Endpoint label: pKd
Reminder that pKd means the negative base-10 logarithm of the concentration expressed in mol/L.

Give pKd for the following molecule: `O=C(CCCCCS)Nc1cc(CCC(=O)c2c(O)cc(O)cc2O[C@@H]2O[C@H](CO)[C@@H](O)[C@H](O)[C@H]2O)ccc1O`
6.70
